TESTED TARGET: Histone deacetylase 5 (Homo sapiens)
Sequence (Q9UQL6 whole entry): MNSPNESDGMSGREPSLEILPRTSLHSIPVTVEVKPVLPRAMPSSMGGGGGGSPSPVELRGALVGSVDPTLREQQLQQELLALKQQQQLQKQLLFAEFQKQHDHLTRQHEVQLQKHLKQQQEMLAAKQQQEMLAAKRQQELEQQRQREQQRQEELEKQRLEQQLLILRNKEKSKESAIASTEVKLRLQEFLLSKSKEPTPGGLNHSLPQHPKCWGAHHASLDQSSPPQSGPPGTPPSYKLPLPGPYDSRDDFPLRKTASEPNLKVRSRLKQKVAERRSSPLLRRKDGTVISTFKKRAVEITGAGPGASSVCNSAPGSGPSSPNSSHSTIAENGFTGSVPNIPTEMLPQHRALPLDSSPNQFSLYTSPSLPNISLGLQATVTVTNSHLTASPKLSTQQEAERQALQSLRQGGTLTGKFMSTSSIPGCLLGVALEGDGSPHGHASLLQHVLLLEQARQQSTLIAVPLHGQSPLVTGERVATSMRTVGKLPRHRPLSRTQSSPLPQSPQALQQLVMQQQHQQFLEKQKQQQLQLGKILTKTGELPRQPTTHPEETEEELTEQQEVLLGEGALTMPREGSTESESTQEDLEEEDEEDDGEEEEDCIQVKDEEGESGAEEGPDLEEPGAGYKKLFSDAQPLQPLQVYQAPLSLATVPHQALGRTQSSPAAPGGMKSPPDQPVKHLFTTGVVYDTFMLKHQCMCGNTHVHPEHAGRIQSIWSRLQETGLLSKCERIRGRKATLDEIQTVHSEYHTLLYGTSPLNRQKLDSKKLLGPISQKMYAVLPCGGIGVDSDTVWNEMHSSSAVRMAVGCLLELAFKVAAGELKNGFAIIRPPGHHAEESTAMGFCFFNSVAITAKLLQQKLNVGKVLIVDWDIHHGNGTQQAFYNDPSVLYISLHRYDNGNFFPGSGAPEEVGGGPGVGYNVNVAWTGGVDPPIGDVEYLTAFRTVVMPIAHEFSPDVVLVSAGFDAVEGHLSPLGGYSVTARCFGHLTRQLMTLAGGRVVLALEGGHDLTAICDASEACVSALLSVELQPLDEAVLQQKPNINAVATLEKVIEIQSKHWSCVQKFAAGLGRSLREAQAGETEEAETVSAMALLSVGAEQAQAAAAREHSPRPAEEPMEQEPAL
pIC50: −log10 of the molar value.
READOUT NAME: pIC50

Specify reported pIC50 for the molecule shown: `Nc1ccccc1NC(=O)c1ccc(CNc2nccc(-c3ccn[nH]3)n2)cc1` < 5.00

====

EXPERIMENTAL DETAILS: Oral bioavailability in Sprague-Dawley rat at 5 mg/kg up to 6 hrs
Type: ADME, organism-based
EXPERIMENTAL CONDITIONS: in vivo
READOUT NAME: bioavailability (%)
Expressed in %, but write only the number.

Identify measured bioavailability associated with `Nc1ccccc1NC(=O)c1ccc(CNc2nccc(-c3ccn[nH]3)n2)cc1` 16

====

TESTED TARGET: Histone deacetylase 2 (Homo sapiens, UniProt Q92769)
Sequence (Q92769 whole entry): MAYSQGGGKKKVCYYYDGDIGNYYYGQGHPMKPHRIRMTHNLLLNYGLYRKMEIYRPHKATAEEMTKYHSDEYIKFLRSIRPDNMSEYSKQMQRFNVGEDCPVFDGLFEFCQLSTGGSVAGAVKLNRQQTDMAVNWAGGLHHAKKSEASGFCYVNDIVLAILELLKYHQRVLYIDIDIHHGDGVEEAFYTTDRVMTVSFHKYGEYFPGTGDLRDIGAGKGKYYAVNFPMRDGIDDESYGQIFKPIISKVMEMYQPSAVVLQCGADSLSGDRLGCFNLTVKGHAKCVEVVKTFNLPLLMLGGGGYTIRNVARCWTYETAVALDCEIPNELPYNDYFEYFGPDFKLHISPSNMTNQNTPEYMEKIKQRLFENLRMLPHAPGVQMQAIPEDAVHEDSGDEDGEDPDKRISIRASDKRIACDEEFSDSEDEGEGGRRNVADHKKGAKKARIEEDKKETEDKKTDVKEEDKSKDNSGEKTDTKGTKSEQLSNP
READOUT NAME: IC50 (nM)
Give your result in nM as a bare value.

// output IC50; input `Nc1ccccc1NC(=O)c1ccc(CNc2nccc(-c3ccn[nH]3)n2)cc1` ; system Histone deacetylase 2 (Homo sapiens, UniProt Q92769) 140

====

Tested on: HCT-116
EXPERIMENTAL DETAILS: Induction of p21WAF1/CIP1 expression in human HCT116 cells assessed as […] after 16 hrs by luciferase assay
Format: functional, cell-based
EXPERIMENTAL CONDITIONS: HCT-116, 16 h
Please use y for EC50 under 600 nM and n for everything else, ties included.

Would you please look over these solved cases?
> print(dat)
                              smiles.record  class.assignment
1  Nc1ccccc1NC(=O)c1ccc(CNc2nccc(-c3ccc(OCCN4CCOCC4)cc3)n2)cc1                 y
2  Nc1ccccc1NC(=O)c1ccc(CNc2nccc(-c3ccsc3)n2)cc1                 y
3  Nc1ccccc1NC(=O)c1ccc(CNc2nccc(-c3cccc(OCCN4CCOCC4)c3)n2)cc1                 y
4  COCOC(C)(C)c1ccc(-c2ccnc(NCc3ccc(C(=O)Nc4ccccc4N)cc3)n2)cn1                 n
5  Nc1ccccc1NC(=O)c1ccc(CNc2cncc(-c3cccnc3)n2)cc1                 y

# ---- query molecule ----
Dear reviewer, please state whether `CN(C)C(=O)c1ccc(-c2ccnc(NCc3ccc(C(=O)Nc4ccccc4N)cc3)n2)cn1` has EC50 strictly beneath 600 nM. n

====

Test system: HCT-116
EXPERIMENTAL DETAILS: Induction of p21WAF1/CIP1 expression in human HCT116 cells assessed as […] after 16 hrs by luciferase assay
Type: functional, cell-based
EXPERIMENTAL CONDITIONS: HCT-116, 16 h
Criterion: EC50 strictly less than 500 nM. Met: Yes. Not met: No.

Worked examples, 3 compounds total:
> print(dat)
                              smiles.record  class.assignment
1  Nc1ccccc1NC(=O)c1ccc(CNc2nccc(-c3ccc(C(=O)N4CCOCC4)nc3)n2)cc1                No
2  CSc1ccc(-c2ccnc(NCc3ccc(C(=O)Nc4ccccc4N)cc3)n2)cn1               Yes
3  N#Cc1ccc(-c2ccnc(NCc3ccc(C(=O)Nc4ccccc4N)cc3)n2)cn1                No

Now take the following compound into account.
Determine whether this compound shows EC50 lower than 500 nM (ties excluded): `CN(C)CCOc1ccc(-c2ccnc(NCc3ccc(C(=O)Nc4ccccc4N)cc3)n2)cc1` Yes
